Target: bdSUMO D67K-MBP fusion protein
measured.metric: cleavage of the SUMO fusion protein

INPUT: Let me know recorded cleavage of the SUMO fusion protein for bdSENP1^MutB protease (protein) PFVPLTDEDEDNVRHALGGRKRSETLSVHEASSIVITREILQCLNDKEWLNDEVINLYLELLKERELREPNKFLKCHFFNTFFYKKLINGGYDYKSVREWTTKRKLGYNLIDCDKIFVPIHKDVHWCLAVINIKEKKFQYLDSLGYMDMKALRILAKYLVDEVKDKSGKQIDVHAWKQEGVQNLPLQENGWDCGMFMLKYIDFYSRDMELVFGQKHMSYFRRRTAKEILDLKAG , thanks.
OUTPUT: < 75 % cleavage
